B1: RAD51 (parent)
chain: APKKELINIKGISEAKADKILAEA

# Variants of: B1
# ASSAY_REMARKS: protein stability index of a GFP-peptide fusion (GPS, HEK-293T) (PSI 1-6); higher = more stable;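 further: lentivirally expressed fusions sorted by FACS into six bins by GFP to DsRed ratio, PSI derived from sequencing read proportions per bin multiplied by bin number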
# DETAILS: c terminus: a fixed tail appended
REPORTED_ENDPOINT: protein stability index
Reply: number alone, nothing else.

> print(dat)
   variant.key  reported.measurement
1          I9L                  4.62
2         A24F                  3.53
3         I20E                  5.33
4          A1L                  4.72
5         A15M                  4.41

Which protein stability index value belongs to I7E ?
5.17

Which protein stability index value belongs to A1Y ?
3.83

Which protein stability index value belongs to S13Y ?
3.71

Which protein stability index value belongs to A24W ?
3.97

Which protein stability index value belongs to L6K ?
5

Values from the supplement of paper PMC10567573
